Test system: Klebsiella pneumoniae Y60
Experiment: Antibacterial activity, Heart Infusion Agar Dilution Method, Klebsiella pneumoniae Y60
Format: cell-based
Applied Conditions: pH 7.2, read-out: Minimum Inhibitory Concentration
Endpoint: MIC (µg/mL)
A number alone suffices; assume µg/mL.

Here are 4 molecules together with their reported answers.
INSERT INTO results (molecule, tested_target, units_symbol, experimental_value) VALUES
  ('CCN1CCN(C(=O)NC(C(=O)NC2C(=O)N3C(C(=O)O)=CCCC23)c2ccccc2)C(=O)C1=O (stereo in doubt) [Example 28]', 'Klebsiella pneumoniae Y60', 'µg/mL', 25),
  ('N[C@@H](C(=O)N[C@@H]1C(=O)N2C(C(=O)O)=CCC[C@H]12)c1ccccc1 [Example 26 B isomer]', 'Klebsiella pneumoniae Y60', 'µg/mL', 3.12),
  ('CC(=O)O[C@@H]1C=C(C(=O)O)N2C(=O)[C@@H](NC(=O)Cc3cccs3)[C@H]2C1 (relative stereo) [Example 41]', 'Klebsiella pneumoniae Y60', 'µg/mL', 25),
  ('N[C@@H](C(=O)N[C@H]1C(=O)N2C(C(=O)O)=CCC[C@H]12)c1ccccc1 (racemic) [Example 26]', 'Klebsiella pneumoniae Y60', 'µg/mL', 12.5);

Attention now turns to another entry.
Item CO/N=C(/C(=O)N[C@@H]1C(=O)N2C(C(=O)O)=CCC[C@H]12)c1csc(N)n1 (relative stereo) [Example 24] has what recorded MIC? 1.56

* * *

Collected MIC values appear next to each entry.
Test system: Staphylococcus aureus 209p
Experiment: Antibacterial activity, Heart Infusion Agar Dilution Method, Staphylococcus aureus 209p
Assay type: cell-based
Applied Conditions: pH 7.2, read-out: Minimum Inhibitory Concentration
A number alone suffices; assume µg/mL.

Here are 2 molecules together with their reported answers.
INSERT INTO measurements (molecule, experimental_value) VALUES
  ('CO/N=C(/C(=O)N[C@@H]1C(=O)N2C(C(=O)O)=C[C@@H](C)C[C@H]12)c1csc(N)n1 (relative stereo)', 12.5),
  ('C[C@@H]1C=C(C(=O)O)N2C(=O)[C@@H](NC(=O)[C@H](N)c3ccccc3)[C@H]2C1 (relative stereo)', 0.78);

Attention now turns to another entry.
Item CO/N=C(\C(=O)N[C@@H]1C(=O)N2C(C(=O)O)=C[C@@H](C)C[C@H]12)c1csc(N)n1 (relative stereo) has what recorded MIC? 12.5

* * *

Collected MIC values appear next to each entry.
Test system: Pseudomonas putida F264
Experiment: Antibacterial activity, Heart Infusion Agar Dilution Method, Pseudomonas putida F264
Type: cell-based
Applied Conditions: pH 7.2, read-out: Minimum Inhibitory Concentration

INSERT INTO assay_data (molecule, tested_target, experimental_value) VALUES
  ('CO/N=C(\C(=O)N[C@@H]1C(=O)N2C(C(=O)O)=C[C@@H](C)C[C@H]12)c1csc(N)n1 (relative stereo)', 'Pseudomonas putida F264', '≤ 0.05 µg/mL');

Record lookup: for Pseudomonas putida F264, what MIC belongs to CC(=O)O[C@@H]1C=C(C(=O)O)N2C(=O)[C@@H](NC(=O)Cc3cccs3)[C@H]2C1 (relative stereo) ? > 100 µg/mL

Record lookup: for Pseudomonas putida F264, what MIC belongs to Cc1nnc(SCC2=C(C(=O)O)N3C(=O)[C@@H](NC(=O)Cn4cnnn4)[C@H]3SC2)s1 [Cefazolin, reference compound] ? > 100 µg/mL

* * *

Test system: Staphylococcus aureus 209p
Experiment: Antibacterial activity, Heart Infusion Agar Dilution Method, Staphylococcus aureus 209p
Assay type: cell-based
Applied Conditions: pH 7.2, read-out: Minimum Inhibitory Concentration
Endpoint: MIC (µg/mL)
A number alone suffices; assume µg/mL.

INSERT INTO measurements (compound, tested_target, experimental_value) VALUES
  ('N[C@@H](C(=O)N[C@H]1C(=O)N2C(C(=O)O)=CCC[C@H]12)c1ccccc1 (racemic)', 'Staphylococcus aureus 209p', 0.4),
  ('CO/N=C(/C(=O)N[C@@H]1C(=O)N2C(C(=O)O)=CCC[C@H]12)c1csc(N)n1 (relative stereo)', 'Staphylococcus aureus 209p', 100),
  ('N[C@@H](C(=O)N[C@@H]1C(=O)N2C(C(=O)O)=CCC[C@H]12)c1ccccc1 [Example 26 B isomer]', 'Staphylococcus aureus 209p', 0.4);

Item CO/N=C(\C(=O)N[C@@H]1C(=O)N2C(C(=O)O)=CCC[C@H]12)c1csc(N)n1 (relative stereo) has what recorded MIC? 12.5

Item CCN1CCN(C(=O)NC(C(=O)NC2C(=O)N3C(C(=O)O)=CCCC23)c2ccccc2)C(=O)C1=O (stereo in doubt) has what recorded MIC? 0.78

Item C[C@H]1C=C(C(=O)O)N2C(=O)[C@@H](NC(=O)[C@H](N)c3ccccc3)[C@H]2C1 (relative stereo) has what recorded MIC? 0.4

Item CC(=O)O[C@@H]1C=C(C(=O)O)N2C(=O)[C@@H](NC(=O)Cc3cccs3)[C@H]2C1 (relative stereo) has what recorded MIC? 3.12

* * *

Collected log10 MIC values appear next to each entry.
Test system: Staphylococcus aureus Smith
Experiment: Antibacterial activity, Heart Infusion Agar Dilution Method, Staphylococcus aureus Smith
Type: cell-based
Applied Conditions: pH 7.2, read-out: Minimum Inhibitory Concentration
All values: base-10 log of MIC in µg/mL.

INSERT INTO results (molecule, experimental_value) VALUES
  ('N[C@@H](C(=O)N[C@H]1C(=O)N2C(C(=O)O)=CCC[C@H]12)c1ccccc1 (racemic)', 1.10),
  ('Cc1nnc(SCC2=C(C(=O)O)N3C(=O)[C@@H](NC(=O)Cn4cnnn4)[C@H]3SC2)s1 [Cefazolin, reference compound]', -0.40),
  ('CCN1CCN(C(=O)NC(C(=O)NC2C(=O)N3C(C(=O)O)=CCCC23)c2ccccc2)C(=O)C1=O (stereo in doubt)', 0.49),
  ('CC(=O)O[C@@H]1C=C(C(=O)O)N2C(=O)[C@@H](NC(=O)Cc3cccs3)[C@H]2C1 (relative stereo)', 1.40),
  ('C[C@H]1C=C(C(=O)O)N2C(=O)[C@@H](NC(=O)[C@H](N)c3ccccc3)[C@H]2C1 (relative stereo)', 0.19);

Attention now turns to another entry.
Item CO/N=C(/C(=O)N[C@@H]1C(=O)N2C(C(=O)O)=C[C@@H](C)C[C@H]12)c1csc(N)n1 (relative stereo) has what recorded log10 MIC? 1.40

* * *

Test system: Staphylococcus aureus Smith
Experiment: Antibacterial activity, Heart Infusion Agar Dilution Method, Staphylococcus aureus Smith
Format: cell-based
Applied Conditions: pH 7.2, read-out: Minimum Inhibitory Concentration
Collected MIC values appear next to each entry.
A number alone suffices; assume µg/mL.

INSERT INTO results (compound, tested_target, experimental_value) VALUES
  ('C[C@@H]1C=C(C(=O)O)N2C(=O)[C@@H](NC(=O)[C@H](N)c3ccccc3)[C@H]2C1 (relative stereo)', 'Staphylococcus aureus Smith', 6.25),
  ('CO/N=C(\C(=O)N[C@@H]1C(=O)N2C(C(=O)O)=C[C@@H](C)C[C@H]12)c1csc(N)n1 (relative stereo)', 'Staphylococcus aureus Smith', 12.5),
  ('N[C@@H](C(=O)N[C@@H]1C(=O)N2C(C(=O)O)=CCC[C@H]12)c1ccccc1 [Example 26 B isomer]', 'Staphylococcus aureus Smith', 6.25);

Attention now turns to another entry.
Item CO/N=C(\C(=O)N[C@@H]1C(=O)N2C(C(=O)O)=CCC[C@H]12)c1csc(N)n1 (relative stereo) has what recorded MIC? 12.5

* * *

System: Staphylococcus epidermidis
Experiment: Antibacterial activity, Heart Infusion Agar Dilution Method, Staphylococcus epidermidis
Assay type: cell-based
Applied Conditions: pH 7.2, read-out: Minimum Inhibitory Concentration
Endpoint: MIC

Here are 3 molecules together with their reported answers.
INSERT INTO assay_data (molecule, experimental_value) VALUES
  ('CC(=O)O[C@@H]1C=C(C(=O)O)N2C(=O)[C@@H](NC(=O)Cc3cccs3)[C@H]2C1 (relative stereo) [Example 41]', '12.5 µg/mL'),
  ('CO/N=C(/C(=O)N[C@@H]1C(=O)N2C(C(=O)O)=C[C@@H](C)C[C@H]12)c1csc(N)n1 (relative stereo) [Example 34]', '25 µg/mL'),
  ('C[C@H]1C=C(C(=O)O)N2C(=O)[C@@H](NC(=O)[C@H](N)c3ccccc3)[C@H]2C1 (relative stereo) [Example 30]', '3.12 µg/mL');

Attention now turns to another entry.
Item N[C@@H](C(=O)N[C@H]1C(=O)N2C(C(=O)O)=CCC[C@H]12)c1ccccc1 (racemic) [Example 26] has what recorded MIC? 6.25 µg/mL

* * *

Tested on: Serratia marcescens T26
Experiment: Antibacterial activity, Heart Infusion Agar Dilution Method, Serratia marcescens T26
Format: cell-based
Applied Conditions: pH 7.2, read-out: Minimum Inhibitory Concentration
Collected MIC values appear next to each entry.

Here are 2 compounds together with their reported answers.
INSERT INTO results (compound, experimental_value) VALUES
  ('N[C@@H](C(=O)N[C@H]1C(=O)N2C(C(=O)O)=CCC[C@H]12)c1ccccc1 (racemic)', '> 100 µg/mL'),
  ('CC(=O)O[C@@H]1C=C(C(=O)O)N2C(=O)[C@@H](NC(=O)Cc3cccs3)[C@H]2C1 (relative stereo)', '> 100 µg/mL');

Record lookup: for Serratia marcescens T26, what MIC belongs to Cc1nnc(SCC2=C(C(=O)O)N3C(=O)[C@@H](NC(=O)Cn4cnnn4)[C@H]3SC2)s1 [Cefazolin, reference compound] ? > 100 µg/mL
